Observed IC50 for Interstitial collagenase (Homo sapiens), reported per entry below.

Hello, I am looking for reported IC50 with Interstitial collagenase (Homo sapiens) for N#C/C(=C\c1ccc(-c2cccs2)s1)c1nc2ccccc2[nH]1 . Could you help?
> 100 µM

Hello, I am looking for reported IC50 with Interstitial collagenase (Homo sapiens) for COc1ccc(/C=C(\C#N)c2nc3ccccc3[nH]2)cc1I . Could you help?
> 100 µM

###

- test.target: Botulinum neurotoxin type A (Clostridium botulinum)
- Sequence (P0DPI0 2-448 limits assumed): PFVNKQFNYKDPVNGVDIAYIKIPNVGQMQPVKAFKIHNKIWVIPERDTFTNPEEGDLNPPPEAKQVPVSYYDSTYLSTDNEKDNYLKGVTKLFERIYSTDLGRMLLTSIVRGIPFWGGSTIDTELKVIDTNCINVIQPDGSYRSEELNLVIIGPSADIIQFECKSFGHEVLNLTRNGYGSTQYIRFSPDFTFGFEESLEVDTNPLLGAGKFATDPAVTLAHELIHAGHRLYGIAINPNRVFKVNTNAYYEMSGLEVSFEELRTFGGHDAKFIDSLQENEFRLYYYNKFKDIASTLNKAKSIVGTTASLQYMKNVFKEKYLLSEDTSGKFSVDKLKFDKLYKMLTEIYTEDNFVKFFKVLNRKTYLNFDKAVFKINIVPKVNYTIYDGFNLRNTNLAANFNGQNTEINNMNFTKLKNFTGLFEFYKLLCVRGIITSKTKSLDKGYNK
- method.summary: Inhibition of Clostridium botulinum BoNT/A light chain-mediated SNAP-25 substrate cleavage after 40 mins by FRET assay
Consider the following compounds and their measured IC50 readings.

COc1ccc(/C=C(\C#N)c2nc3ccccc3[nH]2)cc1Cl > 100 µM
COc1ccc(/C=C(\C#N)c2nc3ccccc3[nH]2)cc1F > 100 µM
N#C/C(=C\c1ccc(-c2ccccc2)cc1)c1nc2ccccc2[nH]1 86 µM
N#C/C(=C\c1c[nH]c2ccc(Br)cc12)c1nc2ccccc2[nH]1 > 100 µM
Cc1ccc(/C=C(\C#N)c2nc3ccccc3[nH]2)s1 > 100 µM
Cc1cc(/C=C(\C#N)c2nc3ccccc3[nH]2)sc1C > 100 µM

What value of IC50 has been recorded for this entry: Cn1c(/C(C#N)=C/c2ccc(-c3cccs3)s2)[n+](C)c2ccccc21
> 100 µM

What value of IC50 has been recorded for this entry: COc1ccc(/C=C(\C#N)c2nc3ccccc3[nH]2)cc1Br
> 100 µM

What value of IC50 has been recorded for this entry: Cc1c(/C=C(\C#N)c2nc3ccccc3[nH]2)sc2ccccc12
> 100 µM

What value of IC50 has been recorded for this entry: N#C/C(=C\c1ccc(-c2cccs2)s1)c1nc2ccccc2o1
> 100 µM

What value of IC50 has been recorded for this entry: COc1ccc(/C=C(\C#N)c2nc3ccccc3[nH]2)cc1I
7.2 µM

What value of IC50 has been recorded for this entry: N#C/C(=C\c1ccc(-c2cccs2)s1)c1ccc2ccccc2n1
> 100 µM

What value of IC50 has been recorded for this entry: COc1cc(/C=C(\C#N)c2nc3ccccc3[nH]2)cc(Cl)c1O
59 µM

What value of IC50 has been recorded for this entry: N#C/C(=C\c1c[nH]c2cccc([N+](=O)[O-])c12)c1nc2ccccc2[nH]1
> 100 µM

What value of IC50 has been recorded for this entry: COc1ccc(/C=C(\C#N)c2nc3ccccc3[nH]2)cc1OC
> 100 µM

What value of IC50 has been recorded for this entry: N#C/C(=C\c1c[nH]c2c1ccc1ccccc12)c1nc2ccccc2[nH]1
> 100 µM

What value of IC50 has been recorded for this entry: N#C/C(=C\c1cccs1)c1nc2ccccc2[nH]1
> 100 µM

What value of IC50 has been recorded for this entry: N#C/C(=C\c1cc(-c2ccccc2)cnc1Cl)c1nc2ccccc2[nH]1
> 100 µM

What value of IC50 has been recorded for this entry: N#C/C(=C\c1ccc(-c2cccs2)s1)c1nc2ccccc2[nH]1
26 µM

What value of IC50 has been recorded for this entry: N#C/C(=C\c1ccc(-c2cccs2)o1)c1nc2ccccc2[nH]1
> 100 µM

What value of IC50 has been recorded for this entry: N#C/C(=C\c1ccc(-c2cccs2)s1)c1nc2ccccc2s1
> 100 µM

What value of IC50 has been recorded for this entry: N#C/C(=C\c1ccc(-c2ccco2)s1)c1nc2ccccc2[nH]1
59 µM

What value of IC50 has been recorded for this entry: N#C/C(=C\c1ccc(-c2cccs2)s1)c1cc2ccccc2[nH]1
> 100 µM

Data origin: ChEMBL document CHEMBL1933027
